protocol_summary: Acute toxicity, single oral dose, 14 days observation
Type: in vivo, rat
details: rat, in vivo, po, 500 mg./kg. p.o., n=10, read-out: Perished animals (%)
Give measured mortality at 336 h for each item. Keep answers brief.
Provide only the numeric value, understood in %.

Data request: Give the measured mortality at 336 h of CCCN(CCC)CCCOc1ccc(C(O)(CC)c2ccccc2OC)cc1 (stereo not drawn) .
Data returned: 0

Data request: Record: N[C@@H](CS)C(=O)O [L-cysteine, reference compound]
Data returned: 0

Data request: Record: CCCN(CCC)CCCOc1ccc(C(O)(CC)c2cccc(Cl)c2)cc1 (stereo not drawn)
Data returned: 0
